Known melting point of a selection of compounds

Ask: Quick one: melting point for "CN(C)CC=NC(=O)c1cnn2c(-c3cccnc3)ccnc12" ?
Reply: 124 to 127 °C

Ask: Entry to check: COC(=O)c1c(-c2cc(C)c(O)c(C)c2)c(C)n2c1-c1cc(OC)c(OC)cc1CC2C (racemic)
Reply: 177 to 179 °C

Ask: What do we get for "Cc1ccc(S(=O)(=O)OCCOc2ccc3[nH]nc(S(=O)(=O)c4ccccc4)c3c2)cc1" ?
Reply: 174 to 177 °C

Ask: What about this compound? "Cc1ccc(-c2ccc(Cl)c(C(=O)NCC34CC5CC(CC(C5)C3)C4)c2)nc1C(=O)O"
Reply: 180 to 185 °C

* * *

Entries annotated with measured melting point

Solved cases (3 shown):
* CCOC(=O)/C(=N\OC1CCCCCC1)c1csc(N)n1 | 107 to 108 °C
* O=c1cc(-c2ccc(F)cc2)c2ccc(Sc3cc(F)cc(C(O)(c4nccs4)C(F)(F)F)c3)cc2o1 (stereo not given) | 72 to 73 °C
* CSC1=Nc2c(C)ccnc2N(C2CC2)c2ncccc21 | 173 to 177 °C

Ask: Fill blank: measured melting point of the molecule "c1ccc2c(c1)CCc1c-2noc1N1CCCNCC1" is ____.
Reply: 79 to 81 °C

Ask: Next: "O=C(O)CCCCSc1nc(-c2ccccc2)c(-c2ccccc2)[nH]1"
Reply: 190 to 195 °C

Ask: # iterate: "Cc1cc(C)c(S(=O)(=O)Nc2onc(C)c2Br)c(C)c1"
Reply: 92 to 95 °C

Ask: Moving on to "Cc1nn(-c2ccc(NC=C3C(=O)NC(=O)c4ccc(Br)cc43)cc2)c(C)c1Cl"
Reply: 290 to 291 °C

Ask: Same again, this time with "OCCCc1cccc(CCCO)c1O"
Reply: 176 to 187 °C

Ask: Also, "CC(C)(C(=O)O)c1ccc(C(=O)CCCN2CCC(OC(c3ccccc3)c3ccccc3)CC2)cc1" please.
Reply: 93 to 95 °C

Ask: Next record, please: "COc1cc(-c2nc3cc(F)ccc3s2)ccc1OC(=O)c1cccc([N+](=O)[O-])c1"
Reply: 190 °C

Ask: Record: "Cc1cccc(SCCC(=O)O)c1"
Reply: 73 to 75.5 °C

Ask: // query: CC1OC(n2cnc3c(S(N)(=O)=O)nc(N)nc32)C(O)C1O (stereo not given)
Reply: > 90 °C

Ask: Try this molecule too: "CC(=O)Nc1nc(CCc2ccc(CCBr)cc2)cs1"
Reply: 153 to 154 °C

Ask: Likewise for "O=C(c1nccs1)c1cnn2c(-c3cccnc3)ccnc12" ?
Reply: 262 to 264 °C

Ask: Check "CCc1nc2c(C)c([N+](=O)[O-])c(C)nc2[nH]1" too.
Reply: 146 to 149 °C

Ask: Same thing, different molecule: CC(C(=O)OC(C)(C)C)c1ccc(N2Cc3ccc(Cl)cc3C2=O)cc1 (stereo not given)
Reply: 169 to 171 °C

Ask: Next molecule: C[C@H]1CN(c2c(F)cc3c(=O)c(C(=O)O)cn4c3c2CCN4C)C[C@H]1NC(=O)CNC(=O)OC(C)(C)C (relative stereo)
Reply: 142 to 145 °C

Ask: Next molecule up: "Cc1cc(OCc2nc3ccccc3s2)ccc1[N+](=O)[O-]"
Reply: 145 to 147 °C

Ask: Same for "CCCCCCCCc1nc2c(N)nc3ccccc3c2n1CCOCc1ccccc1"
Reply: 110 to 111 °C

Ask: Now this one: "NC(=O)c1cnc2c([N+](=O)[O-])cccc2c1Cl"
Reply: 277 to 279 °C
